Molecular target: T1, human CTLA-4, full-length, expressed on transfected Expi293 cells (human, UniProt P16410 36-223)
T1 construct: whole, on cells
T1 sequence (P16410 36-223): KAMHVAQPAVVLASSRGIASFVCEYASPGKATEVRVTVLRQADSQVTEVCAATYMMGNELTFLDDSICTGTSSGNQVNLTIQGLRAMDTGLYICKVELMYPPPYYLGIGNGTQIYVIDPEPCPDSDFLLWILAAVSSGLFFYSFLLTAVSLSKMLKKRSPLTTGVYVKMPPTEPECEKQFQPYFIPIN
Test: flow cytometry, 100 nM, Expi293 cells with human CTLA-4
measured_parameter: MFI (MFI)
Entry rule: numbers only, all in MFI.

{"binder": "variant ICOSL IgV-Fc fusion N52P/N57S/Q100G (Fc fusion) DTQEKEVRAMVGSDVELSCACPEGSRFDLNDVYVYWQTSESKTVVTYHIPQPSSLESVDSRYRNRALMSPAGMLRGDFSLRLFNVTPQDEQKFHCLVLSGSLGFQEVLSVEVTLHVAANFSVGSGGGGSEPKSSDKTHTCPPCPAPEAEGAPSVFLFPPKPKDTLMISRTPEVTCVVVDVSHEDPEVKFNWYVDGVEVHNAKTKPREEQYNSTYRVVSVLTVLHQDWLNGKEYKCKVSNKALPAPIEKTISKAKGQPREPQVYTLPPSREEMTKNQVSLTCLVKGFYPSDIAVEWESNGQPENNYKTTPPVLDSDGSFFLYSKLTVDKSRWQQGNVFSCSVMHEALHNHYTQKSLSLSPG", "measured_parameter": "MFI", "measured_value": 5050}

Query binder follows.
Input line: GET /values?readout=MFI&item= variant ICOSL IgV-Fc fusion N52S/N57L/Q100G (Fc fusion) DTQEKEVRAMVGSDVELSCACPEGSRFDLNDVYVYWQTSESKTVVTYHIPQSSSLELVDSRYRNRALMSPAGMLRGDFSLRLFNVTPQDEQKFHCLVLSGSLGFQEVLSVEVTLHVAANFSVGSGGGGSEPKSSDKTHTCPPCPAPEAEGAPSVFLFPPKPKDTLMISRTPEVTCVVVDVSHEDPEVKFNWYVDGVEVHNAKTKPREEQYNSTYRVVSVLTVLHQDWLNGKEYKCKVSNKALPAPIEKTISKAKGQPREPQVYTLPPSREEMTKNQVSLTCLVKGFYPSDIAVEWESNGQPENNYKTTPPVLDSDGSFFLYSKLTVDKSRWQQGNVFSCSVMHEALHNHYTQKSLSLSPG
Output line: 79400
